TEST DESCRIPTION: HPLC retention times to compare lipophilicities
Format: physicochemical
EXPERIMENTAL SETUP: Kinetex EVO C18 column, same gradient A to B; higher retention time = more lipophilic
compounds and their reported HPLC-ELSD t
Kindly provide the numeric value in min only, without the unit symbol.

CCCCCCCCCCCCCCCCCC(=O)OC[C@H](COP(=O)(O)OCCNC(=O)Cn1cc(CNC(=O)CC[C@@H](NC(=O)[C@H](C)NC(=O)[C@@H](C)O[C@H]2[C@H](O)[C@@H](CO)OC(O)[C@@H]2NC(C)=O)C(N)=O)nn1)OC(=O)CCCCCCCCCCCCCCCCC (some centres unmarked) [Example 2, MDP-DSPE [Click]] ... 4.58

Proceeding to the next compound to report its HPLC-ELSD t.
Recorded HPLC-ELSD t of CCCCCCCCCCCCCCCC(=O)OC[C@H](COP(=O)(O)OCCNC(=O)[C@H](C)NC(=O)CC[C@@H](NC(=O)[C@H](C)NC(=O)[C@@H](C)O[C@H]1[C@H](O)[C@@H](CO)OC(OCc2ccccc2)[C@@H]1NC(C)=O)C(N)=O)OC(=O)CCCCCCCCCCCCCCC (some centres unmarked) , please.
3.5

====

TEST DESCRIPTION: Solubility test in PBS buffer
Format: physicochemical
EXPERIMENTAL SETUP: PBS pH 7.4, 0.2 mg/mL, room temperature
Procedure: First, compounds were weighed in a vial and PBS buffer (137, 2.7, 10 and 1.8 mM in NaCl, KCl, Na2HPO4, KH2PO4, respectively; pH=7.4) was added, such that the concentration would become 0.2 mg/mL in case full dissolution would take place. The sample was shaken, left to stand for an hour, shaken again, and then the appearance of the solution at room temperature (RT) was checked. Next, the sample was warmed for 1 minute in a water bath of 37° C., and the appearance of the solution was checked again. […]
ASSAY READOUT: Appearance at RT

Here are 5 compounds together with their reported answers.
CCCCCCCCCCCCCCCCCC(=O)OC[C@H](COP(=O)(O)OCCNC(=O)Cn1cc(CNC(=O)CC[C@@H](NC(=O)[C@H](C)NC(=O)[C@@H](C)O[C@H]2[C@H](O)[C@@H](CO)OC(O)[C@@H]2NC(C)=O)C(N)=O)nn1)OC(=O)CCCCCCCCCCCCCCCCC (stereo partly drawn) [Example 2, MDP-DSPE [Click]] ... hazy
CCCCCCCCCCCCCCCCCC(=O)OC[C@H]1OC(O)[C@H](NC(C)=O)[C@@H](O[C@H](C)C(=O)N[C@@H](C)C(=O)N[C@H](CCC(=O)O)C(N)=O)[C@@H]1O (stereo partly drawn) [MDP-C18[mur], reference compound] ... clear
CCCCCCCCCCCCCCCCCCNC(=O)CC[C@@H](NC(=O)[C@H](C)NC(=O)[C@@H](C)O[C@H]1[C@H](O)[C@@H](CO)OC(O)[C@@H]1NC(C)=O)C(N)=O (stereo partly drawn) ... suspension
CC(=O)N[C@H]1C(O)O[C@H](CO)[C@@H](O)[C@@H]1O[C@H](C)C(=O)N[C@@H](C)C(=O)N[C@H](CCC(=O)NCc1cn(CC(=O)O[C@H]2CC[C@@]3(C)C(=CC[C@H]4[C@@H]5CC[C@H]([C@H](C)CCCC(C)C)[C@@]5(C)CC[C@@H]43)C2)nn1)C(N)=O (stereo partly drawn) [Example 3, MDP-Chol [Click]] ... suspension
CCCCCCCCCCCCCCCC(=O)OC[C@H](COP(=O)(O)OCCNC(=O)[C@H](C)NC(=O)CC[C@@H](NC(=O)[C@H](C)NC(=O)[C@@H](C)O[C@H]1[C@H](O)[C@@H](CO)OC(O)[C@@H]1NC(C)=O)C(N)=O)OC(=O)CCCCCCCCCCCCCCC (stereo partly drawn) [Mifamurtide, reference compound] ... hazy

Now let's try a different one.
Which Appearance at RT is reported for this compound? CCCCCCCCCCCCCCCCCC(=O)OC[C@H](COC(=O)NCCCC[C@H](NC(=O)CC[C@@H](NC(=O)[C@H](C)NC(=O)[C@@H](C)O[C@H]1[C@H](O)[C@@H](CO)OC(OCc2ccccc2)[C@@H]1NC(C)=O)C(N)=O)C(N)=O)OC(=O)CCCCCCCCCCCCCCCCC (stereo partly drawn)
suspension
